Every entry's value here was drawn from patent US8461128B2.

Tested on: M. tuberculosis H37Rv
ASSAY: microbe, parasite or virus in culture
Type: cell-based, Mycobacterium tuberculosis
STATED CONDITIONS: Mycobacterium tuberculosis, H37RV
Consider the following compounds; for each one, report its MIC90.

COMPOUND | MEASURED TARGET | MIC90
CC(=O)O[C@@H]1[C@H](OC(C)=O)[C@@H](COS(=O)(=O)NC(=O)c2ccccc2O)O[C@H]1n1cnc2c(N)ncnc21 | M. tuberculosis H37Rv | > 200 µM
Nc1ccc(C(=O)O)c(O)c1 [p-aminosalicylic acid, reference compound] | M. tuberculosis H37Rv | 0.78 µM
Nc1ncnc2c1ncn2[C@@H]1O[C@H](COS(=O)(=O)NC(=O)c2ccccc2)[C@@H](O)[C@H]1O | M. tuberculosis H37Rv | > 200 µM
NNC(=O)c1ccncc1 [isoniazid, reference compound] | M. tuberculosis H37Rv | 0.2 µM
CC(=O)Oc1ccccc1C(=O)NS(=O)(=O)OC[C@H]1O[C@@H](n2ccc3ccccc32)[C@H](OC(C)=O)[C@@H]1OC(C)=O | M. tuberculosis H37Rv | ~50 µM
NS(=O)(=O)OC[C@H]1O[C@@H](n2ccc3ccccc32)[C@H](O)[C@@H]1O | M. tuberculosis H37Rv | > 200 µM

Form entry - test system: M. tuberculosis H37Rv; read-out: MIC90; compound: O=C(NS(=O)(=O)OC[C@H]1O[C@@H](n2ccc3ccccc32)[C@H](O)[C@@H]1O)c1ccccc1O
> 200 µM
